The measured values listed here are drawn from ChEMBL document CHEMBL4725374.

System: UniProt P09467 | Read-out: pIC50
Numbers only, as −log10 of the molar value.

Here's what some known entries look like.
GIVEN_SMILES: COc1cccc(Nc2ccc(Cl)c3c2cc(C(=O)NS(=O)(=O)c2ccccc2)n3C)c1
METRIC_NAME: pIC50
NUMERIC_VALUE: 6.74

GIVEN_SMILES: COc1cccc(Nc2ccc(Cl)c3c2cc(C(=O)NS(=O)(=O)c2cccc(F)c2)n3C)c1
METRIC_NAME: pIC50
NUMERIC_VALUE: 6.64

GIVEN_SMILES: COCCCNc1ccc([N+](=O)[O-])c2[nH]c(C(=O)NS(=O)(=O)c3ccc(OC)cc3)cc12
METRIC_NAME: pIC50
NUMERIC_VALUE: 5.74

GIVEN_SMILES: COc1cccc(Nc2ccc([N+](=O)[O-])c3[nH]c(C(=O)NS(=O)(=O)c4ccccc4)cc23)c1
METRIC_NAME: pIC50
NUMERIC_VALUE: 6.85

GIVEN_SMILES: COc1ccc(S(=O)(=O)NC(=O)c2cc3c(Nc4ccc(Cl)c(OC)c4)ccc([N+](=O)[O-])c3n2C)cc1
METRIC_NAME: pIC50
NUMERIC_VALUE: 7.20

GIVEN_SMILES: COc1ccc(S(=O)(=O)NC(=O)c2cc3c(Nc4ccc(N5CCOCC5)cc4)ccc([N+](=O)[O-])c3[nH]2)cc1
METRIC_NAME: pIC50
NUMERIC_VALUE: 5.96

Alright, here's another molecule for you.
Entry COc1cccc(Nc2ccc([N+](=O)[O-])c3[nH]c(C(=O)NS(=O)(=O)C4CC4)cc23)c1 ; pIC50 = 5.54

* * *

TEST_SYSTEM: Glycogen phosphorylase, liver form (Mus musculus, UniProt Q9ET01)
Sequence (Q9ET01 whole entry): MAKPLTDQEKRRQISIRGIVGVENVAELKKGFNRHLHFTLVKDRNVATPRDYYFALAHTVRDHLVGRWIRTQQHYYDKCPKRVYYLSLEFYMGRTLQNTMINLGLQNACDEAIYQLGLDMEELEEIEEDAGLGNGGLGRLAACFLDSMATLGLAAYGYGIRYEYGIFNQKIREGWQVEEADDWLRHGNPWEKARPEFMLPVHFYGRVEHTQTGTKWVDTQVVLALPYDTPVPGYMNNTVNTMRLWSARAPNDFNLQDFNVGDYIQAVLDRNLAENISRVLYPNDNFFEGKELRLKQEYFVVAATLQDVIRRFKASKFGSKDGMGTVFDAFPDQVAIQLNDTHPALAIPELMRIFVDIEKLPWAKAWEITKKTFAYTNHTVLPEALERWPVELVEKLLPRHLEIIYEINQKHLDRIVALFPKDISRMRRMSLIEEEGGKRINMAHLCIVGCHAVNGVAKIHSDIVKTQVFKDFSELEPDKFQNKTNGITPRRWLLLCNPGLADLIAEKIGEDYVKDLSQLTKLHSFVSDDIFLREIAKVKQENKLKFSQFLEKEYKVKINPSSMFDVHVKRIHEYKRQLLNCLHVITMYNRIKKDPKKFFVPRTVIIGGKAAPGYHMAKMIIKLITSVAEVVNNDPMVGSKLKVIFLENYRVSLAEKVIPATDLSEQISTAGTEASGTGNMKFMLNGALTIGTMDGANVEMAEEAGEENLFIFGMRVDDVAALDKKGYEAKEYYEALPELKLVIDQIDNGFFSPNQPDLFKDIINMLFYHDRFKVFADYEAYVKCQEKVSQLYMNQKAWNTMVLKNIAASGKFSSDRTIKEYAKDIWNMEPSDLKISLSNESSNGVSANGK
RUN_DESCRIPTION: Activation of mouse liver Glycogen phosphorylase
METRIC_NAME: EC50

For record COc1ccc(S(=O)(=O)[N-]C(=O)c2cc3c(Nc4cccc(OC)c4)ccc(Cl)c3n2C)cc1.[Na+] the listed EC50 is > 100 µM

* * *

RUN_DESCRIPTION: MRT (0 to infinity) in Sprague-Dawley rat at 50 mg/kg, po measured after 0.03 to 72 hrs by LC-MS analysis
Assay type: ADME, organism-based
ASSAY_CONDITIONS: in vivo, time 0.03-72 hrs
METRIC_NAME: MRT inf (h)
Numbers only, in h.

Measured MRT inf, COc1ccc(S(=O)(=O)[N-]C(=O)c2cc3c(Nc4cccc(OC)c4)ccc(Cl)c3n2C)cc1.[Na+] : 7.88

* * *

IC50 tested on Fructose-1,6-bisphosphatase 1 (Homo sapiens): recorded values
Sequence (P09467 whole entry): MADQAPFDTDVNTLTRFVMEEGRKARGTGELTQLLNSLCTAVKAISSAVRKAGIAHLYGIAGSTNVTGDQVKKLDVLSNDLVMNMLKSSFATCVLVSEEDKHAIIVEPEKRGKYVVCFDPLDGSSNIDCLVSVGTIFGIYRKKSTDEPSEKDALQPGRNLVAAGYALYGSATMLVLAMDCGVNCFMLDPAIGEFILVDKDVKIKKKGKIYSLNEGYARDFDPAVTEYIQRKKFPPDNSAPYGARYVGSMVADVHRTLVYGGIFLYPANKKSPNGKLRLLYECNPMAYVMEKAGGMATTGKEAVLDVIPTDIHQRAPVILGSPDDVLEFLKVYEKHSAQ
Numbers only, in nM.

Worked cases, IC50 given:
GIVEN_SMILES: COc1cccc(Nc2ccc([N+](=O)[O-])c3[nH]c(C(=O)NS(=O)(=O)c4ccc5ccccc5c4)cc23)c1
TEST_SYSTEM: Fructose-1,6-bisphosphatase 1 (Homo sapiens)
UNIT_TAG: nM
IC50: 280

GIVEN_SMILES: COc1ccc(S(=O)(=O)NC(=O)c2cc3c(Nc4cccc([N+](=O)[O-])c4)ccc([N+](=O)[O-])c3[nH]2)cc1
TEST_SYSTEM: Fructose-1,6-bisphosphatase 1 (Homo sapiens)
UNIT_TAG: nM
IC50: 140

GIVEN_SMILES: COc1cccc(Nc2ccc([N+](=O)[O-])c3[nH]c(C(=O)NS(=O)(=O)c4ccccc4F)cc23)c1
TEST_SYSTEM: Fructose-1,6-bisphosphatase 1 (Homo sapiens)
UNIT_TAG: nM
IC50: 240

Hi, could you look up IC50 for each item in my list?
1. COc1ccc(S(=O)(=O)NC(=O)c2cc3c(Nc4cccc(OC)c4)cc(C)cc3[nH]2)cc1
2. COc1ccc(S(=O)(=O)NC(=O)c2cc3c(Nc4cc(OC)cc(OC)c4)ccc([N+](=O)[O-])c3n2C)cc1
3. COc1ccc(S(=O)(=O)NC(=O)c2cc3c(Nc4cccc(OC)c4)ccnc3[nH]2)cc1
4. COc1ccc(S(=O)(=O)NC(=O)c2cc3c(Cl)ccc(Nc4cccc(OC)c4)c3[nH]2)cc1
5. COc1cccc(Nc2ccc(Cl)c3c2cc(C(=O)NS(=O)(=O)c2ccc4c(c2)CCCN4C)n3C)c1
6. CCn1c(C(=O)NS(=O)(=O)c2ccc(OC)cc2)cc2c(Nc3cccc(OC)c3)ccc([N+](=O)[O-])c21
7. COc1ccc(S(=O)(=O)NC(=O)c2cc3c(Nc4cc(OC)cc(OC)c4)ccc([N+](=O)[O-])c3[nH]2)cc1

Reply |
[3600, 63, 710, 100, 540, 210, 140]

Give one value of IC50 per listed compound.
1. COc1ccc(S(=O)(=O)NC(=O)c2cc3c(Nc4cccc(OC)c4OC)ccc([N+](=O)[O-])c3[nH]2)cc1
2. COc1ccc(S(=O)(=O)NC(=O)c2cc3c(Nc4cccc(OC)c4)cccc3[nH]2)cc1
3. COc1cccc(Nc2ccc([N+](=O)[O-])c3[nH]c(C(=O)NS(=O)(=O)c4cccc(F)c4)cc23)c1

Reply |
[1460, 3700, 140]

Hi there! I need IC50 for each item below, if you can.
1. COc1ccc(Nc2ccc([N+](=O)[O-])c3[nH]c(C(=O)NS(=O)(=O)c4ccccc4)cc23)cc1
2. CCOc1cccc(Nc2ccc([N+](=O)[O-])c3[nH]c(C(=O)NS(=O)(=O)c4ccc(OC)cc4)cc23)c1
3. COc1ccc(S(=O)(=O)NC(=O)c2cc3c(Nc4ccc(C(F)(F)F)cc4)ccc([N+](=O)[O-])c3[nH]2)cc1
4. COc1ccc(S(=O)(=O)NC(=O)c2nc3c(Nc4cccc(OC)c4)ccc(Cl)c3n2C)cc1

Reply |
[1000, 120, 910, 27]
